test.target: ATR kinase (full-length ATR) (Homo sapiens, UniProt Q13535)
Construct: Assays were carried out at 25° C. in the presence of 5 nM full-length ATR
Sequence (Q13535 whole entry): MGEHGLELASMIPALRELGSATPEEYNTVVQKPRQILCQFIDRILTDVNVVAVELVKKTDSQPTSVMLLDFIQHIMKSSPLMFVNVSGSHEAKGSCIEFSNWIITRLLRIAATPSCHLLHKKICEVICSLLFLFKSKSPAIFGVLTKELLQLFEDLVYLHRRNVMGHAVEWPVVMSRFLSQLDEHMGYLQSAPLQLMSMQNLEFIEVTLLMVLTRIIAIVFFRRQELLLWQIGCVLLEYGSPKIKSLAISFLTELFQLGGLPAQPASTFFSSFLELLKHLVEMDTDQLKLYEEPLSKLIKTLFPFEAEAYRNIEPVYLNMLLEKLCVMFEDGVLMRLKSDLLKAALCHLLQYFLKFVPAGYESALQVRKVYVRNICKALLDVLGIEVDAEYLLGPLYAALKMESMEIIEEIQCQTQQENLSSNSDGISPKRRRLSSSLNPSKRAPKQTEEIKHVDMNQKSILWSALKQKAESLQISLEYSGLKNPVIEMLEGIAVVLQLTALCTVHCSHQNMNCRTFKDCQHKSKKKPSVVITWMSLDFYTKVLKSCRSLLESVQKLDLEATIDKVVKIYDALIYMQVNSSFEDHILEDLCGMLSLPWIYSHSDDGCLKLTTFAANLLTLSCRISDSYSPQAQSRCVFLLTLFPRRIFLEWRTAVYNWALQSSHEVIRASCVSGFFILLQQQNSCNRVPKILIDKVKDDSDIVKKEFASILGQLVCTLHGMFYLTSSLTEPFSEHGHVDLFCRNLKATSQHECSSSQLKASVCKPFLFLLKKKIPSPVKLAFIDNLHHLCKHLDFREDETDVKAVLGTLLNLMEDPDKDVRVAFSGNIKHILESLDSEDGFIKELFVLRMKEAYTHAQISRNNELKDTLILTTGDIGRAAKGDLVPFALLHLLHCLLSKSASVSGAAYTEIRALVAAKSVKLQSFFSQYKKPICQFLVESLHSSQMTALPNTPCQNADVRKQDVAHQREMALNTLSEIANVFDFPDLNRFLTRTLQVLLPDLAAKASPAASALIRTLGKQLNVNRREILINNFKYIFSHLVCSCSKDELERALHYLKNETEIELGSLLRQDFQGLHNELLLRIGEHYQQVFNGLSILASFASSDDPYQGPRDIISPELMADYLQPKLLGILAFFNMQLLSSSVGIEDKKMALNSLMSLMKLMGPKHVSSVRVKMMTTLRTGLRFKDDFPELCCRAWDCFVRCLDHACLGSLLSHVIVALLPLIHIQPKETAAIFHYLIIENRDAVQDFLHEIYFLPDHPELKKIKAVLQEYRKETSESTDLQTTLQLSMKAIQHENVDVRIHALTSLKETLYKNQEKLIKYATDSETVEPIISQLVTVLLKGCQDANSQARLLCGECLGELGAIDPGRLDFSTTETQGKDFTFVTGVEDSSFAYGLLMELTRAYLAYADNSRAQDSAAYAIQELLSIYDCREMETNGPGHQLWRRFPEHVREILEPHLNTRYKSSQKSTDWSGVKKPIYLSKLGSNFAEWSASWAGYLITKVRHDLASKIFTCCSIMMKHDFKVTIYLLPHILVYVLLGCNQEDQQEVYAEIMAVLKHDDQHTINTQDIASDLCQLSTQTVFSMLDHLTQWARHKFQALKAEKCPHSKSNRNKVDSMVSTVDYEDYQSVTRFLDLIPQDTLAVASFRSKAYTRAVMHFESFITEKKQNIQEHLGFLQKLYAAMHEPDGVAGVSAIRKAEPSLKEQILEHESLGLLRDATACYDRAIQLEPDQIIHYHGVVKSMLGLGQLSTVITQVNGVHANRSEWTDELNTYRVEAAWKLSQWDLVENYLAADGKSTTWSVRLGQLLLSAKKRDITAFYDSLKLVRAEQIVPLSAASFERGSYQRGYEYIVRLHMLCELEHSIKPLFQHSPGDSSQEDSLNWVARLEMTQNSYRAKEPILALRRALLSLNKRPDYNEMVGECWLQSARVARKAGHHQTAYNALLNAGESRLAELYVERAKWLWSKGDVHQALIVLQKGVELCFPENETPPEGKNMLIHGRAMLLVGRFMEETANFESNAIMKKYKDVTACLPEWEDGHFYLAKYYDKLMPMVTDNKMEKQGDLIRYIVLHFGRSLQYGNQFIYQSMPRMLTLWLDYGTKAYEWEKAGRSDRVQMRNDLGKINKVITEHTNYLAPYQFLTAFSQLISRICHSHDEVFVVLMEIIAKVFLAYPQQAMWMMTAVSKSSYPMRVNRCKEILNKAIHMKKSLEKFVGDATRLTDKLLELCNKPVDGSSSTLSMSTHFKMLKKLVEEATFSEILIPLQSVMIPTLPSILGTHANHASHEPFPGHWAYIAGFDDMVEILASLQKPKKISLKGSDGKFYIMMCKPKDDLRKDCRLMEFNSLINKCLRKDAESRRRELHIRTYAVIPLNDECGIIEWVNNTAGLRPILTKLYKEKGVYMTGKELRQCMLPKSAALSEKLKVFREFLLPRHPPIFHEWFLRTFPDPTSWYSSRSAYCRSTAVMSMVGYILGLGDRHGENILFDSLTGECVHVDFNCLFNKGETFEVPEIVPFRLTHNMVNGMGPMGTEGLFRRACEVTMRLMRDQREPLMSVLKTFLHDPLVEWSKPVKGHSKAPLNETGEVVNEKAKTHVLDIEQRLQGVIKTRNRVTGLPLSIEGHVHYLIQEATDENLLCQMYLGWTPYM
test.description: ATR Inhibition Assay (radioactive-phosphate incorporation)
Assay type: biochemical
test.parameters: Ki(app); 5 nM full-length ATR, 10 μM ATP, 800 μM target peptide, 25° C.; class symbols; read-out: ATR Inhibition Ki
measurement.label: Ki

Incoming: Report Ki for CC(C)S(=O)(=O)c1ccc(-c2cnc3[nH]cc(C(=O)Nc4ccccc4O)c3n2)cc1 please.
Outgoing: < 100 nM

Incoming: Entry to check: CC(C)S(=O)(=O)c1ccc(-c2cnc3[nH]cc(C(=O)N4CCCCC4CO)c3n2)cc1 (stereo not shown)
Outgoing: 500 to 5000 nM

Incoming: Entry to check: CC(C)S(=O)(=O)c1ccc(-c2cnc3[nH]cc(C(=O)NCC4CCCO4)c3n2)cc1 (stereo not shown)
Outgoing: < 100 nM

Incoming: Entry to check: CC(C)S(=O)(=O)c1ccc(-c2cnc3[nH]cc(C(=O)NC4CCc5ccccc54)c3n2)cc1 (stereo not shown)
Outgoing: < 100 nM

###

Would you mind telling me the reported pKi of each entry?
test.target: ATR kinase (full-length ATR) (Homo sapiens)
Construct: Assays were carried out at 25° C. in the presence of 5 nM full-length ATR
test.description: ATR Inhibition Assay (radioactive-phosphate incorporation)
Format: biochemical
test.parameters: Ki(app); 5 nM full-length ATR, 10 μM ATP, 800 μM target peptide, 25° C.; given as numeric lower bound without unit; read-out: ATR Inhibition Ki
pKi: −log10 of the molar value.

Incoming: Report pKi for CC(C)S(=O)(=O)c1ccc(-c2cnc3[nH]cc(C(=O)N4CCNCC4)c3n2)cc1 please.
Outgoing: < 6.60

Incoming: Entry to check: CC(C)S(=O)(=O)c1ccc(-c2cnc3[nH]cc(C(=O)N(CC(N)=O)C4CCCC4)c3n2)cc1
Outgoing: < 7.40

Incoming: Entry to check: CC(C)S(=O)(=O)c1ccc(-c2cnc3[nH]cc(C(=O)NCC4CCCCC4)c3n2)cc1
Outgoing: < 6.30

Incoming: Entry to check: CC(C)S(=O)(=O)c1ccc(-c2cnc3[nH]cc(C(=O)Nc4cc(C(C)(C)C)on4)c3n2)cc1
Outgoing: < 7.40

Incoming: Entry to check: CC(C)S(=O)(=O)c1ccc(-c2cnc3[nH]cc(C(=O)N(CCO)C4CCCCC4)c3n2)cc1
Outgoing: < 6.00

Incoming: Entry to check: CC(C)S(=O)(=O)c1ccc(-c2cnc3[nH]cc(C(=O)N4CCC(CO)CC4)c3n2)cc1
Outgoing: < 5.40

Incoming: Entry to check: CC(C)S(=O)(=O)c1ccc(-c2cnc3[nH]cc(C(=O)NCc4cccc(Cl)c4)c3n2)cc1
Outgoing: < 6.60

Incoming: Entry to check: CC(C)S(=O)(=O)c1ccc(-c2cnc3[nH]cc(C(=O)NCC4(N)CCCCC4)c3n2)cc1
Outgoing: < 6.60

Incoming: Entry to check: CC(C)S(=O)(=O)c1ccc(-c2cnc3[nH]cc(C(=O)N4CCOCC4)c3n2)cc1
Outgoing: < 5.60

###

Would you mind telling me the reported Ki of each entry?
test.target: ATR kinase (full-length ATR) (Homo sapiens)
Construct: Assays were carried out at 25° C. in the presence of 5 nM full-length ATR
test.description: ATR Inhibition Assay (radioactive-phosphate incorporation)
Format: biochemical
test.parameters: Ki(app); 5 nM full-length ATR, 10 μM ATP, 800 μM target peptide, 25° C.; given as numeric lower bound without unit; read-out: ATR Inhibition Ki

Incoming: Report Ki for CC(C)S(=O)(=O)c1ccc(-c2cnc3[nH]cc(C(=O)NC4(CO)CC4)c3n2)cc1 please.
Outgoing: > 1 µM

Incoming: Entry to check: CC(C)S(=O)(=O)c1ccc(-c2cnc3[nH]cc(C(=O)N4CCCN(C)CC4)c3n2)cc1
Outgoing: > 4 µM

Incoming: Entry to check: CC(C)S(=O)(=O)c1ccc(-c2cnc3[nH]cc(C(=O)NC4CN(C(=O)OC(C)(C)C)C4)c3n2)cc1
Outgoing: > 0.25 µM

Incoming: Entry to check: CC(C)S(=O)(=O)c1ccc(-c2cnc3[nH]cc(C(=O)N4CCC(N(C)C)CC4)c3n2)cc1
Outgoing: > 4 µM

Incoming: Entry to check: CC(C)S(=O)(=O)c1ccc(-c2cnc3[nH]cc(C(=O)N4CCN(C(=O)OC(C)(C)C)CC4)c3n2)cc1
Outgoing: > 2.5 µM

Incoming: Entry to check: CC(C)S(=O)(=O)c1ccc(-c2cnc3[nH]cc(C(=O)N4CCOc5ccccc5C4)c3n2)cc1
Outgoing: > 0.25 µM

Incoming: Entry to check: CC(C)S(=O)(=O)c1ccc(-c2cnc3[nH]cc(C(=O)N4CCCCC4)c3n2)cc1
Outgoing: > 0.25 µM
